Tested on: secreted APP
Experiment: ELISA for secreted APP in SHSY5Y cells
Assay type: cell-based, human
Conditions: Dose 20 uM, 16 hours
metric-name: APP Secretion by SH-SY-5Y Cells (% vehicle control)
Give just the number in % vehicle control; leave the unit off.

Worked cases, answers included:
# molecule, recorded-measurement
rows = [
    ("COc1ccc2c(c1)[C@@]1(C)CCN(C)C1N2Cc1ccccc1 (single isomer, unassigned)", 108.4),
    ("COc1ccc2c(c1)C1(C)CCN(C)C1N2 (stereo not shown)", 124.65),
    ("CN1CC[C@]2(C)c3cc(O)ccc3N(Cc3ccccc3)C12 (stereo partly shown)", 6.2),
]

Query: What APP Secretion by SH-SY-5Y Cells value was documented for this molecule, COc1ccc2c(c1)C(O)(c1ccccc1)C(=O)N2C (stereo not shown) ?
Reply: 112.8

---

Listed below: APP Toxicity SH-SY-5Y Cells (MTS assay) values for each entry.
System: SH-SY-5Y Cells
Assay: MTS toxicity assay in SHSY5Y cells
Type: cell-based, human
Conditions: Dose 6 uM
Give just the number in % vehicle control; leave the unit off.

# compound, target-desc, APP Toxicity SH-SY-5Y Cells (MTS assay), % vehicle control
measured = [
    ("COc1ccc2c(c1)[C@@]1(C)CCN(Cc3ccccc3)C1N2Cc1ccccc1 (some centres unmarked)", "SH-SY-5Y Cells", 98.35),
    ("COc1ccc2c(c1)[C@]1(C)CCN(C)C1N2Cc1ccccc1 (single isomer, unassigned) [MES 9202]", "SH-SY-5Y Cells", 97.85),
]

Query: What APP Toxicity SH-SY-5Y Cells (MTS assay) value was documented for this compound, C[C@@]12CCN(Cc3ccccc3)C1Nc1ccc(O)cc12 (some centres unmarked) ?
Reply: 46.67

Query: What APP Toxicity SH-SY-5Y Cells (MTS assay) value was documented for this compound, COc1ccc2c(c1)[C@]1(C)CCOC1N2C (some centres unmarked) ?
Reply: 96.45

Query: What APP Toxicity SH-SY-5Y Cells (MTS assay) value was documented for this compound, COc1ccc2c(c1)C1(C)CCN(C)C1N2 (centres unmarked) ?
Reply: 98.65

Query: What APP Toxicity SH-SY-5Y Cells (MTS assay) value was documented for this compound, COc1ccc2c(c1)C1(C)CCSC1N2C (centres unmarked) ?
Reply: 97.35

Query: What APP Toxicity SH-SY-5Y Cells (MTS assay) value was documented for this compound, COc1ccc2c(c1)[C@]1(C)CCSC1N2C (some centres unmarked) ?
Reply: 101.2

Query: What APP Toxicity SH-SY-5Y Cells (MTS assay) value was documented for this compound, `CN(C)CC[C@]1(C)C(=O)N(C)c2ccc(O)cc21` ?
Reply: 101.25

Query: What APP Toxicity SH-SY-5Y Cells (MTS assay) value was documented for this compound, `COc1ccc2[nH]cc(CCN)c2c1.Cl` ?
Reply: 101.15

Query: What APP Toxicity SH-SY-5Y Cells (MTS assay) value was documented for this compound, COc1ccc2c(c1)[C@]1(C)CCN(C)C1N2Cc1ccccc1 (some centres unmarked) [MES 9242] ?
Reply: 89.8

Query: What APP Toxicity SH-SY-5Y Cells (MTS assay) value was documented for this compound, CN1CC[C@]2(C)c3cc(O)ccc3N(Cc3ccccc3)C12 (some centres unmarked) ?
Reply: 78.6

Query: What APP Toxicity SH-SY-5Y Cells (MTS assay) value was documented for this compound, COc1ccc2c(c1)C(C)(c1ccccc1)C(=O)N2C (centres unmarked) ?
Reply: 100.4

Query: What APP Toxicity SH-SY-5Y Cells (MTS assay) value was documented for this compound, `COc1ccc2[nH]c3c(c2c1)CCN(C)C3` ?
Reply: 98.05

Query: What APP Toxicity SH-SY-5Y Cells (MTS assay) value was documented for this compound, COc1ccc2c(c1)[C@@]1(C)CCN(C)C1N2Cc1ccccc1 (single isomer, unassigned) ?
Reply: 99.17

Query: What APP Toxicity SH-SY-5Y Cells (MTS assay) value was documented for this compound, `COc1ccc2c(c1)c(CCN(C)C)cn2Cc1ccccc1` ?
Reply: 92.84

Query: What APP Toxicity SH-SY-5Y Cells (MTS assay) value was documented for this compound, `Br.CC1=C(c2ccc(O)cc2)CN2CCC[C@H]2C1.O` ?
Reply: 98.45

Query: What APP Toxicity SH-SY-5Y Cells (MTS assay) value was documented for this compound, C[C@]12CCN(Cc3ccccc3)C1N(Cc1ccccc1)c1ccc(O)cc12 (some centres unmarked) ?
Reply: 40.47

Query: What APP Toxicity SH-SY-5Y Cells (MTS assay) value was documented for this compound, COc1ccc2c(c1)C(O)(c1ccccc1)C(=O)N2C (centres unmarked) ?
Reply: 101.05

Query: What APP Toxicity SH-SY-5Y Cells (MTS assay) value was documented for this compound, `CN1C(=O)C(=O)c2ccccc21` ?
Reply: 103.85

Query: What APP Toxicity SH-SY-5Y Cells (MTS assay) value was documented for this compound, COc1ccc2c(c1)[C@]1(C)CCN(Cc3ccccc3)C1N2 (some centres unmarked) ?
Reply: 98.4
